# Organism: Rattus norvegicus
# Method Summary: Open TG-GATES - Regimen: Single
# Assay type: toxicity, organism-based, Sprague-Dawley
# Design: regimen Single, gender Male, age 6 weeks
# Condition Notes: in vivo, po, 0 mg/kg, 24 h, tissue Blood, route gavage, dose level Control
The entries below are paired with their reported Ht.

{"Compound": "CCSCC[C@H](N)C(=O)O", "Ht [%]": 41.5}
{"Compound": "O=C(N[C@H](CO)[C@H](O)c1ccc([N+](=O)[O-])cc1)C(Cl)Cl", "Ht [%]": 40.9}
{"Compound": "CC(=O)Oc1cc(C(C)C)c(OCCN(C)C)cc1C", "Ht [%]": 39.3}
{"Compound": "CCC(C)(C)C(=O)O[C@H]1C[C@@H](C)C=C2C=C[C@H](C)[C@H](CC[C@@H]3C[C@@H](O)CC(=O)O3)[C@H]21", "Ht [%]": 40.1}
{"Compound": "O=C(O)c1cccnc1", "Ht [%]": 39.3}
{"Compound": "C[C@]12CCC(=O)C=C1CC[C@@H]1[C@@H]2CC[C@@]2(C)[C@H]1CC[C@]2(C)O", "Ht [%]": 38.6}
{"Compound": "Oc1ncnc2[nH]ncc12", "Ht [%]": 39.8}
{"Compound": "Nc1nc(N)c2nc(-c3ccccc3)c(N)nc2n1", "Ht [%]": 41.9}
{"Compound": "CCc1oc2ccccc2c1C(=O)c1cc(I)c(O)c(I)c1", "Ht [%]": 39.4}
{"Compound": "C[C@](N)(Cc1ccc(O)c(O)c1)C(=O)O", "Ht [%]": 38.2}
{"Compound": "CC(=N)S [THIOACETAMIDE]", "Ht [%]": 40.6}
{"Compound": "CCN1CCCC1CNC(=O)c1cc(S(N)(=O)=O)ccc1OC (stereo unspecified) [SULPIRIDE]", "Ht [%]": 41.1}
{"Compound": "CC(C)(S)[C@@H](N)C(=O)O", "Ht [%]": 40.9}
{"Compound": "C#C[C@]1(O)CC[C@H]2[C@@H]3CCc4cc(O)ccc4[C@H]3CC[C@@]21C", "Ht [%]": 38.3}
{"Compound": "CN1C(=O)OC(C)(C)C1=O", "Ht [%]": 39.5}
{"Compound": "CC(C)C(=O)Nc1ccc([N+](=O)[O-])c(C(F)(F)F)c1 [FLUTAMIDE]", "Ht [%]": 40.4}
